Molecular target: VDR (Homo sapiens, UniProt P11473)
Construct: -CMV-VDR-LBD coding for the hinge region and; expressed in transfected cells; host or cells: HEK293T
Sequence (P11473 127-423 limits assumed): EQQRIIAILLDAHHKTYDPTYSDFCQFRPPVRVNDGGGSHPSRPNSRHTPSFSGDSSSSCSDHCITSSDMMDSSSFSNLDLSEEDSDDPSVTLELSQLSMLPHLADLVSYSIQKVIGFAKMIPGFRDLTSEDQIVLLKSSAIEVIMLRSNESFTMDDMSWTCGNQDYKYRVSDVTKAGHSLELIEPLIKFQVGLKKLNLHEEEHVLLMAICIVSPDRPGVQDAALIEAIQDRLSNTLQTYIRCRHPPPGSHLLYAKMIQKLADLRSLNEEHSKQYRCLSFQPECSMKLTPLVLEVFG
Assay: Gal4‐VDR hybrid reporter gene assay, agonist mode
Format: cell-based
Conditions: dark‐adapted (E)‐state; HEK293T cells; mean±S.E.M., n≥3; read-out: VDR modulation dark (E): EC50
Measurement Kind: EC50 (nM)

Would you please look over these solved cases?
CCCCc1cc(C(O)(CC)CC)ccc1-c1cc(/N=N/c2ccc(CO)c(CO)c2)ccc1C: 1800
CCCc1cc(C(O)(CC)CC)ccc1-c1cc(/N=N/c2ccc(C(=O)O)c(O)c2)ccc1C: 500

I = CCC(O)(CC)c1ccc(-c2cc(/N=N/c3ccc(CO)c(CO)c3)ccc2C)c(C)c1
II = CCCc1cc(C(O)(CC)CC)ccc1-c1cc(/N=N/c2ccc(CO)c(CO)c2)ccc1C
Could you check which of I and II has a smaller value for EC50? Response format: the label of the selected entry.
II
(II: 600 nM, I: 1000 nM)

Measured values drawn from paper PMC13360702 for this set.
